All values here come from ChEMBL document CHEMBL3988442.

Please respond with reported Percent Effect for every item in the list.
target: AMP-activated protein kinase, AMPK (Homo sapiens) (UniProt P54646+O43741+P54619+Q9UGJ0+Q9Y478+Q13131+Q9UGI9); assay: AMP-dependent Kinase enzyme assay. An in vitro enzyme assay that detects ADP turnover that is directly proportional to AMPK activity. This uses naive AMPK that is activated during the assay with MK-8722; type: functional; design: scale not given: direction of the effect not stated beside the values; conditions: 30 µM
One number for each entry, in %.

As a guide, the following entries are already answered.
CCC(C)c1noc(C2CCN(C(=O)c3cccs3)CC2)n1 (centres undefined) | 1.18
COC(=O)c1ccoc1COC(=O)CCc1ccc(OC)c(OC)c1 | 11.1
CC(C)c1nc2n(n1)CC(NCc1nnc(C(C)C)o1)CC2 (centres undefined) | 139

Batch: Percent Effect for all items listed.
1. COc1cnc(N2CCC(Oc3ccccc3OC)(C(=O)O)CC2)nc1
2. Cc1[nH]nc2ncc(C(=O)N3CCN(CC(C)C)CC3)cc12
3. Cc1noc(NC(=O)c2ccc(OC(F)(F)F)cc2)n1

1. 0.422
2. 10.4
3. -0.843

----------
Assignment: determine reported Percent Effect for the given molecules.
biological target: Ubiquitin-activating enzyme e1, putative (Leishmania donovani (strain BPK282A1)); assay: Leishmania donovani Ubiquitin Activating Enzyme (LdE1); type: functional; set-up: scale not given: direction of the effect not stated beside the values; conditions: 30 µM
Entries with a potency or affinity are not part of this list.

As a guide, the following entries are already answered.
Cc1ccccc1[C@@H]1CN(C(=O)c2ccc3[nH]nnc3c2)C[C@H]1C(=O)O | -11%
O=C(O)CC1CN(Cc2ccccc2)CCO1 (configuration not stated) | 5.41%
Cc1ccc(C(=O)N2CCn3cc(CN(C)Cc4ccco4)nc3C2)o1 | 0%
Cc1nc(CN2CCc3ncnc(C)c3CC2)cs1 | 0%
CCS(=O)(=O)N1CCc2c(CN(C)Cc3ccco3)cncc2C1 | -2.67%

Parameters: items (list). Returns: Percent Effect for each item.
1. CCc1cnc(CN(C(C)=O)C2CCN(CCS(C)(=O)=O)C2)o1 (configuration not stated)
2. CC(C)Oc1ncccc1CNC(=O)N1CCC(C(N)=O)C1 (configuration not stated)

["6.94%", "5.26%"]

Return reported Percent Effect values for all items listed beneath this line.
1. C[C@H](O)CNC(=O)c1cnc(-c2ccccc2)nc1O
2. O=C(CC1CCCC1)NCCn1ccc(-c2ccncc2)n1
3. Cc1ccc(C(=O)NS(=O)(=O)c2ccccc2C)c(=O)[nH]1
4. Cc1ccc(N2CCCC(NCc3ccsc3)C2)nn1 (configuration not stated)
5. CC(C)c1nc(CN(C)C2CCN(CC(F)(F)F)C2)no1 (configuration not stated)

10.8%
0%
8.11%
13.5%
5.48%

----------
Give measured Percent Effect for each item. Keep answers brief.
target: Tyrosyl-tRNA synthetase, putative (Trypanosoma cruzi (strain CL Brener)) (UniProt Q4DSP6); experiment: Trypanosoma cruzi tyrosyl tRNA synthetase (TcYRS) SOP; format: functional; set-up: scale not given: direction of the effect not stated beside the values; settings: 30 µM
Sequence (Q4DSP6 as listed by the source): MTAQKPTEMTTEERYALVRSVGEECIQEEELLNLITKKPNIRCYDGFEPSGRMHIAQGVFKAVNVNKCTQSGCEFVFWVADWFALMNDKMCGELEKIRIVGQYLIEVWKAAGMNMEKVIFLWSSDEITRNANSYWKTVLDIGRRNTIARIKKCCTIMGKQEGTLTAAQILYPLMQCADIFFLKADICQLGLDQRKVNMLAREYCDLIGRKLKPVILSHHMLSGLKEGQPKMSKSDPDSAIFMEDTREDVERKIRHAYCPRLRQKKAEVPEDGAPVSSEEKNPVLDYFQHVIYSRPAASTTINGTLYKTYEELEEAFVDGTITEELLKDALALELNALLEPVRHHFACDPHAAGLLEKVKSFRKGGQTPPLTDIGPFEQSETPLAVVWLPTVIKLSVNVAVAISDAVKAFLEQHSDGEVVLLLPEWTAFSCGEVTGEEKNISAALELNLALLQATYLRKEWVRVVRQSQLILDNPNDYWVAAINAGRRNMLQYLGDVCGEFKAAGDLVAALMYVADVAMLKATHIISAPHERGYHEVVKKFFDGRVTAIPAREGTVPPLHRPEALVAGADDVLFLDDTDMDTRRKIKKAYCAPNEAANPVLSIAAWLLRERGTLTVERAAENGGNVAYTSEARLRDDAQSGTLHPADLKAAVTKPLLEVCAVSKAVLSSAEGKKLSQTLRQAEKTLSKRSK
Give bare numbers, in %.

Example compounds with recorded Percent Effect:
Cn1cc(CN2C[C@@H]3COC[C@@H](C(=O)N4CCCCO4)[C@@H]3C2)cn1 | 8.97
O=C(C1CCC1)N1CCN(Cc2ccsc2)[C@H]2CS(=O)(=O)C[C@H]21 | 3.7
Cc1ccc(CN2CC[C@H]3OCC[C@@H](C(=O)NC4CC4)[C@@H]3C2)o1 | -2.56
CN(C)C(=O)N1C[C@H](Oc2ccccn2)[C@H]2OCCC[C@H]21 | 3.85

Quick request: Percent Effect for each listed item, please.
1. Cc1cc(C)c2c(c1)C1(CC(=O)Nc3c1cnn3C(C)C)C(=O)N2 (centres undefined)
2. CC(=O)N1CCC(c2ccnc(Nc3cnccn3)n2)C1 (centres undefined)
3. O=C(Nc1ccccc1F)N(CCO)Cc1ccsc1
4. CC(C)C1CN(c2ncc(F)cn2)CCC(=O)N1Cc1ccc(F)cc1 (centres undefined)
5. COc1ccc(CNC(C)c2cccc(Cl)c2)c(OC)c1OC (centres undefined)
6. Cc1noc(C)c1CN1C[C@@H]2COC[C@H](C(=O)N3CCCCO3)[C@@H]2C1
7. COCCC(=O)N1CCC2(CN(Cc3ccc(OC)c(F)c3)C2)C1
8. CCc1ncc2c(n1)CN(Cc1nc(-c3ccccn3)no1)CC2

1: 2.56; 2: 16.7; 3: -4.88; 4: 15.4; 5: 6.17; 6: 8.97; 7: 18.5; 8: 25.9

// batch mode: one Percent Effect value per listed entry
1. CC(C)Cc1noc(CN2CCN(C(=O)c3cccc(F)c3)CC2)n1
2. CC(C)c1n[nH]c(C(=O)Nc2cc[nH]n2)c1Br
3. Cc1nc(-c2ccsc2)ccc1C(=O)NCCC(=O)N1CCCC1
4. CCOc1ccc(Cl)cc1C1CCCN1 (centres undefined)
5. CN(C)c1cc(C(=O)NCCc2nnc(-c3ccco3)[nH]2)ccn1
6. Cc1ccccc1C1(CNc2nnc(C)c(C)c2C#N)CCOCC1
7. COCCC(=O)N1CC[C@@H]2O[C@@H](C)C[C@H]2C1

1. 1.24
2. 1.27
3. 9.76
4. 7.79
5. 10.4
6. 0
7. 11.5

----------
Task for the reader: assign each of the following compounds its reported Percent Effect.
target: Tyrosyl-tRNA synthetase, putative (Trypanosoma cruzi (strain CL Brener)) (UniProt Q4DSP6); test: Trypanosoma cruzi tyrosyl tRNA synthetase (TcYRS) SOP; type: functional; set-up: scale not given: direction of the effect not stated beside the values; details: 30 µM
One number for each entry, in %.

Would you be so kind as to report Percent Effect for each listed record?
1. Cc1cccc(C(=O)N2CCN(S(C)(=O)=O)[C@@H](C)C2)c1C
2. O=C1CC2(CCN(CC3CC3)C2)CN1c1cccc(F)c1 (configuration not stated)
3. CSC(C)C(=O)N1CCCN(Cc2cscn2)CC1 (configuration not stated)
4. Cn1cc(-c2cnc(N3CCCC3)nc2)cc1C(=O)O
5. Cn1cc(CN2C[C@@H]3COC[C@]3(C(=O)NCc3ccccn3)C2)cn1
6. c1cnn(CC2CCCCN2c2ncnc3sccc23)c1 (configuration not stated)
7. CSCCC(=O)N1CCCC1c1ccsc1 (configuration not stated)
8. COCC(c1cccc(C(F)(F)F)c1)N(C)C(=O)c1cc(C)n[nH]1 (configuration not stated)

0
11.1
9.76
13.4
2.5
-1.24
0
12.2

Quick batch: Percent Effect for everything below.
1. CCc1noc(C2CCCCN2C(=O)c2ccoc2C)n1 (configuration not stated)
2. O=C(C1CCCCN1Cc1nc(-c2ccco2)no1)N1CCCC1 (configuration not stated)
3. Cc1nnc(NC(=O)NCc2cc(F)cc(F)c2)s1

5.13
3.66
13.6

Readout Percent Effect for COc1cccc(C2CCCN2Cc2nc3c(cnn3C)c(=O)[nH]2)c1 (configuration not stated) , test system Tyrosyl-tRNA synthetase, putative (Trypanosoma cruzi (strain CL Brener)) (UniProt Q4DSP6), was 24.1

----------
test system: Trypanosoma cruzi; experiment: Trypanosoma cruzi phosphomannomutase and mannose-1-phosphate guanylyltransferase assay; format: functional; design: scale not given: direction of the effect not stated beside the values; settings: 10 µM
For each record, write down the corresponding Percent Effect.
One number for each entry, in %.

Look up Percent Effect for the entries below, preserving their order.
1. O=C(NC1CCC1)[C@@H]1C[C@@H]2CCN(Cc3cccs3)C[C@@H]2O1
2. O=C1CCSCC(C(=O)N2CCCC2)N1 (stereo unspecified)
3. CN(CCNC(=O)NCc1ccncc1)C1CCCC1
4. Cc1ccc(-c2ncc(C(=O)NCCNC(=O)C(C)C)s2)c(C)c1
5. c1ccc(-c2ccc3nc(C4CCN(CC5CC5)CC4)nn3c2)cc1
6. Cc1cc(C(=O)N[C@@H]2CCNC[C@H]2O)ccc1Cl
7. CSC(C)(C)CNC(=O)NCCC1CCN(C)CC1
8. CCc1ccc(S(=O)(=O)Nc2cc(C(=O)O)c(F)cc2F)s1

1: -0.197; 2: -3.33; 3: -3.3; 4: -3.87; 5: 0.992; 6: 6.56; 7: 0.487; 8: 9.99

----------
target: Proteasome subunit beta (Trypanosoma cruzi) (UniProt O96673); assay: Trypanosoma cruzi proteasome chymotrypsin-like activity (TcProtChymo) assay.; assay type: functional; design: scale not given: in the data most compounds retested in dose-response had high values; conditions: 9.37 µM
Sequence (O96673 as listed by the source): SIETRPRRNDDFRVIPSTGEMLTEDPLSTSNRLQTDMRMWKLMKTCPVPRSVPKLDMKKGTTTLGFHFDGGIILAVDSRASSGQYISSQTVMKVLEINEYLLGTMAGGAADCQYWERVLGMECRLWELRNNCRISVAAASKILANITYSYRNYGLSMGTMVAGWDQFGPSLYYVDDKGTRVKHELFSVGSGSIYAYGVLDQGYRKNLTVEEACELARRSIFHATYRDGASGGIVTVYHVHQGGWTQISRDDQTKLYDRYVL
measuredEndpoint: Percent Effect (%)
One number for each entry, in %.

Answered examples (8):
Cn1ccc(C(=O)N2CCC[C@]3(C[C@@H](OCc4ccccn4)CO3)C2)n1 | 15.1
Cc1nn(CC(=O)N2CCC(Nc3cccnn3)CC2)c(C)c1Cl | 4.68
CC(=O)Nc1nc(CN2CCCC2c2cnn(C)c2)cs1 (centres undefined) | 6.31
Cn1cc(CC2CCN(C(=O)NCc3cn4ccsc4n3)C2)cn1 (centres undefined) | 12.2
CS(=O)(=O)NC[C@]12COC[C@H]1CN(C(=O)Cc1ccccc1F)C2 | 6.44
COCCCN1CCCN(C(C)C(=O)Nc2ccnn2C(C)C)CC1 (centres undefined) | 13.9
CCN(CC)c1ccc(C(=O)N(C)Cc2c(C)noc2C)cn1 | -5.84
Cc1cnn(CCNCc2nc(-c3ccccc3Cl)no2)c1 | 16.5

Go through the list and state Percent Effect for each entry.
1. Cc1nn(C)c(C)c1CC(=O)N1CCCC(n2cccn2)C1 (centres undefined)
2. O=C(CN1CCc2c(ncn2C2CC2)C1)NC1CC1
3. O=C(NC1(c2cccc(F)c2)CCOCC1)c1cc[nH]n1
4. CNc1nc(CNC(=O)Nc2cccc(F)c2C)cs1
5. CCN1CC(C(=O)N2CCC(Oc3ccccc3Cl)CC2)CC1=O (centres undefined)
6. O=C([C@@H]1COC[C@H]2CN(C3CCOCC3)C[C@H]21)N1CCCCO1
7. CCOc1ccc(-n2nnc(C(=O)O)c2-c2ccccn2)cc1

2.12
9.09
5.32
5.18
16.7
6.67
29.2

Batch lookup, Percent Effect per entry.
1. CC(NC(=O)NCCCNS(C)(=O)=O)c1ccncc1 (centres undefined)
2. Cc1ccc(-c2nc(CN3CCc4nn(C)c(=O)cc4C3)no2)cc1
3. CCc1n[nH]c(C2CN(C(=O)c3cnns3)CCO2)n1 (centres undefined)
4. O=C(NCCc1ccsc1)Nc1cccnc1N1CCCC1
5. CC(C)c1nc(C2CCCN2Cc2ccno2)no1 (centres undefined)
6. Cc1noc(C)c1CN1CC2(CCN(C(=O)c3cscn3)CC2)CC1=O
7. CNC(=O)CC1CCN(Cc2nc(-c3cccc(Cl)c3)oc2C)CC1

[8.4, -12.8, 2.7, 11.2, -1.52, 14.1, 20.2]

Each of the following entries comes with a recorded value; kindly state Percent Effect for each.
1. c1cnc(-c2cnc(N3CCSCC3)nc2C2CC2)cn1
2. CC(=O)N1CCOCC2(CN(Cc3ccc(C)o3)CCO2)C1 (centres undefined)

1: 3.44; 2: 1.67
